Measured values drawn from ChEMBL document CHEMBL1148851 for this set.

MIC values, listed per item
Test system: Escherichia coli
Test: Antibacterial activity against Escherichia coli ATCC 25922
Format: functional

Example results:
Quick note, MIC for CCCCCCCC(=O)OCC(CO[C@@H]1O[C@H](CO)[C@H](O)[C@H](O)[C@H]1O)OC(=O)CCCCCCC (stereo partly drawn) landed at > 128 µg/mL

Quick note, MIC for CCCCC/C=C\C/C=C\CCCCCCCC(=O)OC(COC(=O)CCCCCCCCC)CO[C@@H]1O[C@H](CO)[C@H](O)[C@H](O)[C@H]1O (stereo partly drawn) landed at > 128 µg/mL

Next:
Quick note, MIC for CC/C=C\C/C=C\C/C=C\CCCCCCCC(=O)OC(COC(=O)CCCCCCC)CO[C@@H]1O[C@H](CO)[C@@H](O)[C@H](O)[C@H]1O (stereo partly drawn) landed at > 128 µg/mL
